Items are presented alongside their recorded composite z-score.
METHOD SUMMARY: small-molecule microarray binders of probe aEGFR, primary screen, biochemical, biotinylated probe, 635/667 nm fluorescence (AID 1097);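 note: probe is a biotinylated anti-EGFR antibody binding compounds printed on slides; score combines fluorescence near 667 nm and signal to noise of each spot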
STUDY CONDITIONS: higher = more signal
// return a plain number; no unit text

Exercise: Entry COC(=O)[C@@]1(Cc2ccccc2)[C@H]2c3cc(C(=O)N4CCCC4)n(C[C@H](O)CO)c3C[C@H]2CN1C(=O)c1ccccc1 : reported composite z-score = ?
Solution: 0.08

Exercise: Please give the result for COCCOC(=O)N1C(=O)[C@@]2(c3cc(C#CC4(O)CCCCCC4)ccc31)[C@H](C(N)=O)[C@H]1C(=O)O[C@H](c3ccccc3)[C@H](c3ccccc3)N1[C@@H]2c1ccc(O)cc1 too.
Solution: -0.0418

Exercise: Field entry: COCCOC(=O)N1C(=O)[C@@]2(c3cc(C#CC4=CCCCC4)ccc31)[C@H](c1ccccc1OCCO)N1[C@H](c3ccccc3)[C@H](c3ccccc3)OC(=O)[C@H]1[C@@H]2C(=O)N1CCc2cc(OC)c(OC)cc2C1
Solution: -0.33

Exercise: Now consider COCCOC(=O)N1C(=O)[C@@]2(c3ccccc31)[C@H](c1ccc(OCCO)cc1)N1[C@H](c3ccccc3)[C@H](c3ccccc3)OC(=O)[C@H]1[C@@H]2C(=O)Nc1nc2ccccc2s1 and answer again.
Solution: -0.0039

Exercise: Would you mind doing COCCCNC(=O)[C@@]1(Sc2ccc(C)cc2)CC(=O)N(Cc2cc(C(F)(F)F)cc(C(F)(F)F)c2)[C@@H]1c1ccc(CO)cc1 as well?
Solution: -0.0531

Exercise: Also CCOC(=O)C1=CC[C@@H](c2cc(Cl)ccc2Cl)N(S(=O)(=O)c2ccc(C)cc2)[C@H]1c1ccc(OC)cc1 , if possible.
Solution: 0.379
